- ASSAYED SYSTEM: JCV VP1 mutant S269F (John Cunningham virus (JCV), UniProt P03089 1-354)
- ASSAY PROTOCOL: cell-based or functional assay
Entries and their Neutralization of JCV S269F: EC50 [pM]
Express your answer in pM, writing the number without its unit.

Tell me the measured Neutralization of JCV S269F: EC50 [pM] of 3D2 (antibody, V domains shown) VH: QVQLQQWGAGLLKPSETLSLTCAVFGGSFSSYYWSWIRHPPGKGLEWIGDINHSGSTNYNPSLKSRVTLSVDTSKNQFSLKVTSVTAADTAVYYCARWGIAADYGMDVWGQGTTVTVSS VL: EIVLTQSPGTLSLSPGERATLSCRASQSVSSSYLAWYQQKPGQAPRLLIYGASSRATGIPDRFSDSGSGTDFTLTISRLEPEDFALYYCQQYGTSPWTFGQGTKVEIK , please.
733

Tell me the measured Neutralization of JCV S269F: EC50 [pM] of 1H10 (antibody, V domains shown) VH: EVQLLESGGGLVQPGGSLRLSCAASGFTLSTYAMSWVRQAPGKGLEWVSAISGTGLSTYYADSLKGRFTISRDISKNTLYLQMSSLKAEDTAVYYCAKGLELFYFYYGMDVWGQGTTVTVSS VL: EIVLTQSPGTLSLSPGERATLSCRASQSVSSTYLAWYQQKPGQAPRLLIYGTSSRATGIPDRFSGSGSGTDFTLTISRLEPEDLAVYYCQQYGRSLIFGQGTRLEIK , please.
20.9
